test system: Fibroblast growth factor receptor 3 (Homo sapiens), P22607 [G697C]; assay: Inhibition of FGFR3 G697C mutant at 1 uM
Sequence (P22607 whole entry G697C): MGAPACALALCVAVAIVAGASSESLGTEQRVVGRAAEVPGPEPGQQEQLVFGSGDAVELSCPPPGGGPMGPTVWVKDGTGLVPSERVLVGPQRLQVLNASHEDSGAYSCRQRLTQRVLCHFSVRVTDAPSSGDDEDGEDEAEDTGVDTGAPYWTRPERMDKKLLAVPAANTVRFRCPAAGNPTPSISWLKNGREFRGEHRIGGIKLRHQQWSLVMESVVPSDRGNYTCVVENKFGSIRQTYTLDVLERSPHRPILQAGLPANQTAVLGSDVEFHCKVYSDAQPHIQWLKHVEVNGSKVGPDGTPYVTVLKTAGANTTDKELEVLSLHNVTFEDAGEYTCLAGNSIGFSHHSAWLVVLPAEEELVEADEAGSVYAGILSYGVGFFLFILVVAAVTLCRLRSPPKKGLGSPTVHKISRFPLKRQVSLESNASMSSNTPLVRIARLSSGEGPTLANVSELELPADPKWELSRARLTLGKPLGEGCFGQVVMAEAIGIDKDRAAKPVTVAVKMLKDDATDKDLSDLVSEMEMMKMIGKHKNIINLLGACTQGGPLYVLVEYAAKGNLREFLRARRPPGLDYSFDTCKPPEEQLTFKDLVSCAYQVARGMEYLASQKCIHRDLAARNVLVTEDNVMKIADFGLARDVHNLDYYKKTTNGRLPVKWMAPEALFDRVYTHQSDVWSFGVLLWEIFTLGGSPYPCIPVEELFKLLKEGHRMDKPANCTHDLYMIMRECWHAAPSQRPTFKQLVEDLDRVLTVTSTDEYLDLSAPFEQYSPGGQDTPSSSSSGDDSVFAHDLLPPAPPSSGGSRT
Result Type: inhibition

The examples below pair each entry with its known result.
CN1CCN(c2ccc(-c3cnc4c(c3)N(Cc3c(F)ccc(F)c3Cl)CCN4)cn2)CC1 :: < 50%
CN1CCN(c2ccc(-c3cnc4c(c3)N(Cc3cc(Cl)ccc3Cl)CCN4)cn2)CC1 :: < 50%
CN1CCN(c2ccc(-c3cnc4c(c3)N(Cc3cc(F)ccc3F)CCN4)cn2)CC1 :: < 50%
COC1CCN(C(=O)c2ccc(-c3cnc4c(c3)N(Cc3cc(Cl)ccc3C(F)(F)F)CCN4)cc2)CC1 :: < 50%
FC(F)(F)c1ccc(Cl)cc1CN1CCNc2ncc(-c3ccnc(N4CCNCC4)c3)cc21 :: < 50%
CC(=O)N1CCN(c2cc(-c3cnc4c(c3)N(Cc3cc(Cl)ccc3C(F)(F)F)CCN4)ccn2)CC1 :: < 50%
O=C(c1ccc(-c2cnc3c(c2)N(Cc2cc(Cl)ccc2C(F)(F)F)CCN3)cc1)N1CCCCC1 :: < 50%
CN1CCN(c2ccc(-c3cnc4c(c3)N(Cc3cc(Cl)ccc3C(F)(F)F)CCN4)cn2)CC1 :: < 50%

Req: Fill in the blank: the reported inhibition of O=C(c1ccc(-c2cnc3c(c2)N(Cc2cc(Cl)ccc2C(F)(F)F)CCN3)cc1)N1CCC(N2CCCC2)CC1 is ____.
Resp: < 50%

Req: Fill in the blank: the reported inhibition of O=C(O)c1ccc(-c2cnc3c(c2)N(Cc2cc(Cl)ccc2C(F)(F)F)CCN3)cc1 is ____.
Resp: < 50%

* * *

# maps each entry to its inhibition
tested on: Tyrosine-protein kinase ABL1 (Homo sapiens), P00519 [M351T]; assay: Inhibition of ABL1 M351T mutant at 1 uM

The examples below pair each entry with its known result.
O=C(c1ccc(-c2cnc3c(c2)N(Cc2cc(Cl)ccc2C(F)(F)F)CCN3)cc1)N1CCC(N2CCCC2)CC1 :: < 50%
FC(F)(F)c1ccc(Cl)cc1CN1CCNc2ncc(-c3ccnc(N4CCNCC4)c3)cc21 :: < 50%

Req: Fill in the blank: the reported inhibition of O=C(O)c1ccc(-c2cnc3c(c2)N(Cc2cc(Cl)ccc2C(F)(F)F)CCN3)cc1 is ____.
Resp: < 50%

Req: Fill in the blank: the reported inhibition of CN1CCN(c2ccc(-c3cnc4c(c3)N(Cc3cc(F)ccc3F)CCN4)cn2)CC1 is ____.
Resp: 71.9%

Req: Fill in the blank: the reported inhibition of CN1CCN(c2ccc(-c3cnc4c(c3)N(Cc3cc(Cl)ccc3C(F)(F)F)CCN4)cn2)CC1 is ____.
Resp: < 50%

Req: Fill in the blank: the reported inhibition of O=C(c1ccc(-c2cnc3c(c2)N(Cc2cc(Cl)ccc2C(F)(F)F)CCN3)cc1)N1CCCCC1 is ____.
Resp: < 50%

Req: Fill in the blank: the reported inhibition of CN1CCN(c2ccc(-c3cnc4c(c3)N(Cc3c(F)ccc(F)c3Cl)CCN4)cn2)CC1 is ____.
Resp: 87%

Req: Fill in the blank: the reported inhibition of COC1CCN(C(=O)c2ccc(-c3cnc4c(c3)N(Cc3cc(Cl)ccc3C(F)(F)F)CCN4)cc2)CC1 is ____.
Resp: < 50%

Req: Fill in the blank: the reported inhibition of CC(=O)N1CCN(c2cc(-c3cnc4c(c3)N(Cc3cc(Cl)ccc3C(F)(F)F)CCN4)ccn2)CC1 is ____.
Resp: < 50%

Req: Fill in the blank: the reported inhibition of CN1CCN(c2ccc(-c3cnc4c(c3)N(Cc3cc(Cl)ccc3Cl)CCN4)cn2)CC1 is ____.
Resp: 68%

Entry source: ChEMBL document CHEMBL1165965
